Reference source: patent US20260007758A1

Quick reference: log10 of EC50 of the listed items.
test system: human somatostatin receptor subtype 2 (Homo sapiens)
Construct: expressed in transfected cells
test name: Functional assay for SSTR2 agonists (HTRF cAMP)
Format: cell-based
condition info: CHO-K1 cells stably expressing human SST2; NKH477-stimulated cAMP; 20 min at 37 C; read-out: hSST2 cAMP Avg EC50
recorded endpoint: log10 of EC50 (log10 of the value in nM)

>  <compound>
CC[C@H](C)[C@@H]([C@@H](CC(=O)N1CCC[C@H]1[C@H](OC)[C@@H](C)C(=O)N[C@H](C)[C@@H](O)c1ccccc1)OC)N(C)C(=O)[C@@H](NC(=O)[C@H](C(C)C)N(C)C(=O)OCc1ccc(NC(=O)[C@H](CCCNC(N)=O)NC(=O)[C@@H](NC(=O)[C@H](NC(=O)CCOCCC(=O)NCCNc2ncc(-c3cc(C)cc(F)c3)c(N3CCC(N)CC3)c2-c2nc3ccc(Cl)cc3[nH]2)c2cnn(C)c2)C(C)C)c(OCC(=O)O)c1)C(C)C

>  <measured number>
-0.85

$$$$
>  <compound>
CC[C@H](C)[C@@H]([C@@H](CC(=O)N1CCC[C@H]1[C@H](OC)[C@@H](C)C(=O)N[C@H](C)[C@@H](O)c1ccccc1)OC)N(C)C(=O)[C@@H](NC(=O)[C@H](C(C)C)N(C)C(=O)OCc1ccc(NC(=O)[C@H](CCCNC(N)=O)NC(=O)[C@@H](NC(=O)CN(C)C(=O)CCOCCC(=O)NCCNc2ncc(-c3cc(C)cc(F)c3)c(N3CCC(N)CC3)c2-c2nc3ccc(Cl)cc3[nH]2)C(C)C)c(O[C@@H]2O[C@H](C(=O)O)[C@@H](O)[C@H](O)[C@H]2O)c1)C(C)C

>  <measured number>
-0.62

$$$$
>  <compound>
CC[C@H](C)[C@@H]([C@@H](CC(=O)N1CCC[C@H]1[C@H](OC)[C@@H](C)C(=O)N[C@H](C)[C@@H](O)c1ccccc1)OC)N(C)C(=O)[C@@H](NC(=O)[C@H](C(C)C)N(C)C(=O)OCc1ccc(NC(=O)[C@H](CCCNC(N)=O)NC(=O)[C@@H](NC(=O)[C@H](CCC(=O)O)NC(=O)CCOCCC(=O)NCCNc2ncc(-c3cc(C)cc(F)c3)c(N3CCC(N)CC3)c2-c2nc3ccc(Cl)cc3[nH]2)C(C)C)cc1C(=O)NCCN(C)C)C(C)C

>  <measured number>
-0.92

$$$$
>  <compound>
CC[C@H](C)[C@@H]([C@@H](CC(=O)N1CCC[C@H]1[C@H](OC)[C@@H](C)C(=O)N[C@H](C)[C@@H](O)c1ccccc1)OC)N(C)C(=O)[C@@H](NC(=O)[C@H](C(C)C)N(C)C(=O)OCc1ccc(NC(=O)[C@H](CCCNC(N)=O)NC(=O)[C@@H](NC(=O)C[C@@H](N)C(=O)NCCOCCOCCC(=O)NCCNc2ncc(-c3cc(C)cc(F)c3)c(N3CCC(N)CC3)c2-c2nc3ccc(Cl)cc3[nH]2)C(C)C)c(O[C@@H]2O[C@H](C(=O)O)[C@@H](O)[C@H](O)[C@H]2O)c1)C(C)C

>  <measured number>
-0.57

$$$$
>  <compound>
CC[C@H](C)[C@@H]([C@@H](CC(=O)N1CCC[C@H]1[C@H](OC)[C@@H](C)C(=O)N[C@H](C)[C@@H](O)c1ccccc1)OC)N(C)C(=O)[C@@H](NC(=O)[C@H](C(C)C)N(C)C(=O)OCc1ccc(NC(=O)[C@H](CCCNC(N)=O)NC(=O)[C@@H](NC(=O)C[C@@H](N)C(=O)NCCOCCNC(=O)c2cc(NCCOCCC(=O)NCCNc3ncc(-c4cc(C)cc(F)c4)c(N4CCC(N)CC4)c3-c3nc4ccc(Cl)cc4[nH]3)cc(C(=O)NCC(=O)O)c2)C(C)C)cc1)C(C)C

>  <measured number>
-0.82

$$$$
>  <compound>
CC[C@H](C)[C@@H]([C@@H](CC(=O)N1CCC[C@H]1[C@H](OC)[C@@H](C)C(=O)N[C@H](C)[C@@H](O)c1ccccc1)OC)N(C)C(=O)[C@@H](NC(=O)[C@H](C(C)C)N(C)C(=O)OCc1ccc(NC(=O)[C@H](CCCNC(N)=O)NC(=O)[C@@H](NC(=O)c2cn(CCOCCC(=O)NCCNc3ncc(-c4cc(C)cc(F)c4)c(N4CCC(N)CC4)c3-c3nc4ccc(Cl)cc4[nH]3)nn2)C(C)C)c(O[C@@H]2C[C@H](C(=O)O)[C@@H](O)[C@H](O)[C@H]2O)c1)C(C)C

>  <measured number>
-0.47

$$$$
>  <compound>
CC[C@H](C)[C@@H]([C@@H](CC(=O)N1CCC[C@H]1[C@H](OC)[C@@H](C)C(=O)N[C@H](C)[C@@H](O)c1ccccc1)OC)N(C)C(=O)[C@@H](NC(=O)[C@H](C(C)C)N(C)C(=O)OCc1ccc(NC(=O)C(CCCNC(N)=O)NC(=O)[C@@H](NC(=O)c2cc(NC(=O)CCOCCC(=O)N(C)CC(=O)NCCNc3ncc(-c4cc(C)cc(F)c4)c(N4CCC(N)CC4)c3-c3nc4ccc(Cl)cc4[nH]3)cc(C(=O)NCC(=O)NCCN)c2)C(C)C)cc1)C(C)C (stereo partly drawn)

>  <measured number>
-0.39

$$$$
>  <compound>
CC[C@H](C)[C@@H]([C@@H](CC(=O)N1CCC[C@H]1[C@H](OC)[C@@H](C)C(=O)N[C@H](C)[C@@H](O)c1ccccc1)OC)N(C)C(=O)[C@@H](NC(=O)[C@H](C(C)C)N(C)C(=O)OCc1ccc(NC(=O)[C@H](C)NC(=O)[C@@H](NC(=O)CCOCCC(=O)NCCNc2ncc(-c3cc(C)cc(F)c3)c(N3CCC(N)CC3)c2-c2nc3cnccc3[nH]2)C(C)C)c(O[C@@H]2O[C@H](C(=O)O)[C@@H](O)[C@H](O)[C@H]2O)c1)C(C)C

>  <measured number>
0.20

$$$$
>  <compound>
CC[C@H](C)[C@@H]([C@@H](CC(=O)N1CCC[C@H]1[C@H](OC)[C@@H](C)C(=O)N[C@H](C)[C@@H](O)c1ccccc1)OC)N(C)C(=O)[C@@H](NC(=O)[C@H](C(C)C)N(C)C(=O)OCc1ccc(NC(=O)[C@H](CCCNC(N)=O)NC(=O)[C@@H](NC(=O)[C@H](CCC(=O)O)NC(=O)CCOCCC(=O)NCCNc2ncc(-c3cc(C)cc(F)c3)c(N3CCC(N)CC3)c2-c2nc3cc(F)cc(OC)c3[nH]2)C(C)C)cc1C(=O)NCCN)C(C)C

>  <measured number>
-0.92

$$$$

----------
test system: SST2 (Homo sapiens)
Construct: host or cells: PathHunter CHO-K1 SST2 cells
Sequence (P30874 whole entry): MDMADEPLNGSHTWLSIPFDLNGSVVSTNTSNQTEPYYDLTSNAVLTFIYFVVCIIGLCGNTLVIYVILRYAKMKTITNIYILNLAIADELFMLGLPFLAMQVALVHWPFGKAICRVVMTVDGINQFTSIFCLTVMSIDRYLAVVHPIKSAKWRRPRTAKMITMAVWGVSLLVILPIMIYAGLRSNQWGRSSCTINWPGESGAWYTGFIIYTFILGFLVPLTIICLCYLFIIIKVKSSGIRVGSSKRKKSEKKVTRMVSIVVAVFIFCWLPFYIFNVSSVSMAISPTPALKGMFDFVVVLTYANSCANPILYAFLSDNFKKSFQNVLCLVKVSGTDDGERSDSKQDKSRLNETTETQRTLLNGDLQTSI
test name: PathHunter CHO-K1 SST2 Internalization Assay
Assay type: cell-based
condition info: PathHunter CHO-K1 SST2 cells; 90 min at 37 C; luminescence; read-out: Internalization EC50
pEC50: −log10 of the molar value.
recorded endpoint: pEC50

>  <compound>
CC[C@H](C)[C@@H]([C@@H](CC(=O)N1CCC[C@H]1[C@H](OC)[C@@H](C)C(=O)N[C@H](C)[C@@H](O)c1ccccc1)OC)N(C)C(=O)[C@@H](NC(=O)[C@H](C(C)C)N(C)C(=O)OCc1ccc(NC(=O)[C@H](CCCNC(N)=O)NC(=O)C2(NC(=O)CCOCCC(=O)NCCNc3ncc(-c4cc(C)cc(F)c4)c(N4CCC(N)CC4)c3-c3nc4ccc(Cl)cc4[nH]3)CCC2)c(O[C@H]2O[C@H](C(=O)NCC(=O)O)[C@@H](O)[C@H](O)[C@H]2O)c1)C(C)C [Compound 210]

>  <recorded endpoint>
pEC50

>  <measured number>
8.55

$$$$

----------
Known pEC50 of a selection of molecules
test system: human somatostatin receptor subtype 2 (Homo sapiens, UniProt P30874)
Construct: expressed in transfected cells
test name: Functional assay for SSTR2 agonists (HTRF cAMP)
Type: cell-based
condition info: CHO-K1 cells stably expressing human SST2; NKH477-stimulated cAMP; 20 min at 37 C; read-out: hSST2 cAMP Avg EC50
pEC50: −log10 of the molar value.

>  <molecule>
CC[C@H](C)[C@@H]([C@@H](CC(=O)N1CCC[C@H]1[C@H](OC)[C@@H](C)C(=O)N[C@H](C)[C@@H](O)c1ccccc1)OC)N(C)C(=O)[C@@H](NC(=O)C(C(C)C)N(C)C(=O)OCc1ccc(NC(=O)[C@H](CCCNC(N)=O)NC(=O)[C@@H](NC(=O)CCOCCC(=O)NCCNc2ncc(-c3cc(C)cc(F)c3)c(N3CCC(N)CC3)c2-c2nc3ccc(Cl)cc3[nH]2)C(C)C)c(O[C@@H]2O[C@H](C(=O)N3CCN(CCO)CC3)[C@@H](O)[C@H](O)[C@H]2O)c1)C(C)C (some centres unmarked)

>  <pEC50>
10.00

$$$$
>  <molecule>
CC[C@H](C)[C@@H]([C@@H](CC(=O)N1CCC[C@H]1[C@H](OC)[C@@H](C)C(=O)N[C@H](C)[C@@H](O)c1ccccc1)OC)N(C)C(=O)[C@@H](NC(=O)[C@H](C(C)C)N(C)C(=O)OCc1ccc(NC(=O)[C@H](CCCNC(N)=O)NC(=O)[C@@H](NC(=O)CCOCCC(=O)NCCNc2ncc(-c3cc(C)cc(F)c3)c(N3CCC(N)CC3)c2-c2nc3ccc(Cl)cc3[nH]2)C(C)C)c(O[C@@H]2O[C@H](C(=O)NCCCCCNC(=O)CCCCc3ccc(I)cc3)[C@@H](O)[C@H](O)[C@H]2O)c1)C(C)C

>  <pEC50>
9.59

$$$$
>  <molecule>
CC[C@H](C)[C@@H]([C@@H](CC(=O)N1CCC[C@H]1[C@H](OC)[C@@H](C)C(=O)N[C@H](C)[C@@H](O)c1ccccc1)OC)N(C)C(=O)[C@@H](NC(=O)[C@H](C(C)C)N(C)C(=O)OCc1ccc(NC(=O)[C@H](C)NC(=O)[C@@H](NC(=O)CCOCCOCCOCCOCCC(=O)NCCNc2ncc(-c3cc(C)cc(F)c3)c(N3CCC(N)CC3)c2-c2nc3ccc(Cl)cc3[nH]2)C(C)C)cc1C(=O)NCC(=O)O)C(C)C

>  <pEC50>
9.80

$$$$
>  <molecule>
CC[C@H](C)[C@@H]([C@@H](CC(=O)N1CCC[C@H]1[C@H](OC)[C@@H](C)C(=O)N[C@H](C)[C@@H](O)c1ccccc1)OC)N(C)C(=O)[C@@H](NC(=O)[C@H](C(C)C)N(C)C(=O)OCc1ccc(NC(=O)[C@H](CCCNC(N)=O)NC(=O)[C@@H](NC(=O)c2cc(NCCOCCC(=O)NCCNc3ncc(-c4cc(C)cc(F)c4)c(N4CCC(N)CC4)c3-c3nc4ccc(Cl)cc4[nH]3)cc(C(=O)NCCS(=O)(=O)O)c2)C(C)C)cc1)C(C)C

>  <pEC50>
9.30

$$$$
>  <molecule>
CC[C@H](C)[C@@H]([C@@H](CC(=O)N1CCC[C@H]1[C@H](OC)[C@@H](C)C(=O)N[C@H](C)[C@@H](O)c1ccccc1)OC)N(C)C(=O)[C@@H](NC(=O)[C@H](C(C)C)N(C)C(=O)OCc1ccc(NC(=O)[C@H](CCCNC(N)=O)NC(=O)[C@@H](NC(=O)CCOCCC(=O)N(C)CC(=O)NCCNc2ncc(-c3cc(C)cc(F)c3)c(N3CCC(N)CC3)c2-c2nc3ccc(Cl)cc3[nH]2)C(C)C)c(O[C@@H]2O[C@H](C(=O)NCCN(C)C)[C@@H](O)[C@H](O)[C@H]2O)c1)C(C)C

>  <pEC50>
9.85

$$$$
